Each recorded value in this set is attributed to patent US20080242663A1.

Quick list: pIC50 per entry.
# measured target: recombinant EphB4 (Homo sapiens)
# Construct: amino acids 563-987; Swiss-Prot Acc; No. P54760
# protocol notes: In vitro EphB4 enzyme assay (Alphascreen)
The read-out pIC50 is expressed as -log10 of concentration in moles per litre.

Some entries whose results are on file:
CN(c1cccc(Cl)c1)c1ccnc(Nc2cc(C(=O)N3CCOCC3)cc(N3CCOCC3)c2)n1 [Example 19.10]	6.18
CN(c1ccnc(Nc2cc(N3CCOCC3)cc(N3CCOCC3)c2)n1)c1ccc(Cl)cc1Cl [Example 15.1]	4.47
COc1ccc(N(C)c2ccnc(Nc3cc(N4CCOCC4)cc(N4CCOCC4)c3)n2)cc1OC [Example 15.3]	6.00
CN1CCN(c2cc(Nc3nccc(N(C)c4cccc(Cl)c4)n3)cc(N3CCOCC3)c2)CC1 [Example 24]	9.24
COc1ccc(C)c(N(C)c2ccnc(Nc3cc(N4CCOCC4)cc(N4CCOCC4=O)c3)n2)c1 [Example 12.7]	6.52
CN(c1ccnc(Nc2cc(CO)cc(N3CCOCC3)c2)n1)c1ccc(F)c(Cl)c1F [Example 2.7]	6.93
COCCN(C)C(=O)c1cc(Nc2nccc(N(C)c3cc(CO)ccc3C)n2)cc(N2CCOCC2)c1 [Example 18.7]	6.93
CC(C)NC(=O)c1cc(Nc2nccc(N(C)c3cccc(Cl)c3)n2)cc(N2CCOCC2)c1 [Example 19.14]	5.93
CCN(c1ccnc(Nc2cc(N3CCOCC3)cc(N3CCOCC3)c2)n1)c1cc(OC)ccc1C [Example 22.3]	5.92
C[C@H](O)CN(C)C(=O)c1cc(Nc2nccc(N(C)c3cccc(Cl)c3)n2)cc(N2CCOCC2)c1 [Example 19.5]	6.74

Query block: Fill blank: measured pIC50 of the molecule CN(c1ccnc(Nc2cc(N3CCOCC3)cc(N3CCOCC3)c2)n1)c1ccc(F)c(F)c1F [Example 15.9] is ____.
Result block: 6.22

Query block: Recorded pIC50 for Cc1ccc(CO)cc1N(C)c1ccnc(Nc2cc(OC3CCC3)cc(N3CCOCC3)c2)n1 [Example 17.5] , please?
Result block: 6.02

Query block: What value of pIC50 has been recorded for this entry: Cc1ccc(N(C)c2ccnc(Nc3cc(N4CCOCC4)cc(N4CCOCC4)c3)n2)cc1 [Example 10.1]
Result block: 6.40

---

# measured target: human EphB4 (Homo sapiens, UniProt P54760)
# Construct: to generate full-length EphB4 containing a Myc-His tag at the C-terminus; EphB4-CHO)
# Sequence (P54760 16-987): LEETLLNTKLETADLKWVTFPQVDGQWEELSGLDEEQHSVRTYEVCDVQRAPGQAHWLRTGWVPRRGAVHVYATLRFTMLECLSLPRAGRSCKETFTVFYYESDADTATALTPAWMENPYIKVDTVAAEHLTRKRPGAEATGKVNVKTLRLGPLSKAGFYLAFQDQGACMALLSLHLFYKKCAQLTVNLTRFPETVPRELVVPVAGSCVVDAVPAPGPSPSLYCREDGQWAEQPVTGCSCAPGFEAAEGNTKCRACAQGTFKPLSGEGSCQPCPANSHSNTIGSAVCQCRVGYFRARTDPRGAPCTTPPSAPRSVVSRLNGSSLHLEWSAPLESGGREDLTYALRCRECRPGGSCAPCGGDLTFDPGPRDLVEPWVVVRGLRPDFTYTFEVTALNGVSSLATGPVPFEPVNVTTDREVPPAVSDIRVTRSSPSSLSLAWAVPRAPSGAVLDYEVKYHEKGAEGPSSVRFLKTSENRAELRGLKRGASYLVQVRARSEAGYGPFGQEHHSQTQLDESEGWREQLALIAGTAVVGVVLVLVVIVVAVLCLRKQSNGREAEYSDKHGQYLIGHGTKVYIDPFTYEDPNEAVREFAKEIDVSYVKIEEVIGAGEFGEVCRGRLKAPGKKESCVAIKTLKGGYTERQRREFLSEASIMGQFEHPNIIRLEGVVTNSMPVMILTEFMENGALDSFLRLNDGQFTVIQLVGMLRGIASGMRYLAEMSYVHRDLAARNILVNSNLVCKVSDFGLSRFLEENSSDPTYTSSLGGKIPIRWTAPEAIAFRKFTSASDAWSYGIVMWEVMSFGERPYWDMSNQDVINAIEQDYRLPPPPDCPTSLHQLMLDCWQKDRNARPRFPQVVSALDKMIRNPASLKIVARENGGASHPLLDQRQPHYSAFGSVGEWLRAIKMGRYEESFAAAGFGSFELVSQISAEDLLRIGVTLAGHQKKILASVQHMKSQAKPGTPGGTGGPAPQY
# protocol notes: In vitro EphB4 cell assay (EphB4 phosphorylation in EphB4-CHO cells, sandwich ELISA)
# stated conditions: Assay B
value type: IC50 (nM)
Answer with a number only, understood to be in nM.

Some compounds with recorded IC50:
CC(C)OCc1cc(Nc2nccc(N(C)c3ccc(F)c(Cl)c3F)n2)cc(N2CCOCC2)c1	17
CN(c1ccnc(Nc2cc(N3CCCOCC3)cc(N3CCOCC3)c2)n1)c1ccc(F)c(Cl)c1F	11
CN(c1ccnc(Nc2cc(F)cc(N3CCOCC3)c2)n1)c1ccc(F)c(Cl)c1F	74
CN(c1ccnc(Nc2cc(CN3CCCC3)cc(N3CCOCC3)c2)n1)c1ccc(F)c(Cl)c1F	21

With those in mind, consider the next compound.
Query block: I'm curious: which IC50 was measured for CN1CCN(c2cccc(Nc3nccc(N(C)c4ccc(F)c(Cl)c4F)n3)c2)CC1 tested on human EphB4 (Homo sapiens, UniProt P54760)?
Result block: 1710

---

# measured target: recombinant EphB4 (Homo sapiens)
# Construct: amino acids 563-987; Swiss-Prot Acc; No. P54760
# protocol notes: In vitro EphB4 enzyme assay (Alphascreen)
// reported pIC50 per item
Remember, pIC50 is on a log scale: it is -log10 of the molar concentration.

Below, 3 compounds whose answers are already recorded.
CN1CCN(C(=O)c2cc(Nc3nccc(N(C)c4cccc(Cl)c4)n3)cc(N3CCOCC3)c2)CC1	6.68
CN1CCN(Cc2cc(Nc3nccc(N(C)c4ccc(F)c(Cl)c4F)n3)cc(N3CCOCC3)c2)CC1	7.34
Cc1cc(C)cc(N(C)c2ccnc(Nc3cc(N4CCOCC4)cc(N4CCOCC4)c3)n2)c1	5.96

Read the next record carefully.
Query block: # returns recorded pIC50 (system: recombinant EphB4 (Homo sapiens)) for CN(c1ccc(Cl)c(F)c1)c1ccnc(Nc2cc(N3CCOCC3)cc(N3CCOCC3)c2)n1
Result block: 6.20

---

# measured target: recombinant EphB4 (Homo sapiens, UniProt P54760)
# Construct: amino acids 563-987; Swiss-Prot Acc; No. P54760; purchased ProQinase GmbH 0178-0000-3
# protocol notes: In vitro EphB4 enzyme assay (Alphascreen)
# Format: biochemical
Each entry below carries its recorded pIC50.
Value format note: pIC50 is -log10 of concentration (mol/L); just state the number.

Before answering, review these 5 worked examples.
CCN(C)C(=O)c1cc(Nc2nccc(N(C)c3cccc(Cl)c3)n2)cc(N2CCOCC2)c1	6.19
CCOCCOc1cc(Nc2nccc(N(C)c3cc(CO)ccc3C)n2)cc(N2CCOCC2)c1	6.19
Cc1ccc(Cl)c(N(C)c2ccnc(Nc3cc(N4CCOCC4)cc(N4CCOCC4)c3)n2)c1	5.86
CC(C)CNC(=O)c1cc(Nc2nccc(N(C)c3cccc(Cl)c3)n2)cc(N2CCOCC2)c1	5.55
COc1cc(C)ccc1N(C)c1ccnc(Nc2cc(N3CCOCC3)cc(N3CCOCC3)c2)n1	5.85

Query block: Could you tell me which pIC50 is on file for Cc1ccc(N(C)c2ccnc(Nc3cc(N4CCOCC4)cc(N4CCOCC4)c3)n2)cc1Cl ?
Result block: 5.76

Query block: Param item = COc1ccc(OC)c(N(C)c2ccnc(Nc3cc(N4CCOCC4)cc(N4CCOCC4)c3)n2)c1 ; retrieve measured pIC50.
Result block: 6.17

Query block: Can you look up the measured pIC50 of Cc1ccc(CO)cc1N(C)c1ccnc(Nc2cc(N3CCOCC3)cc(N3CC[C@H](O)C3)c2)n1 for me?
Result block: 6.82

---

The following compounds are shown together with reported log10 IC50 values.
# measured target: recombinant EphB4 (Homo sapiens, UniProt P54760)
# Construct: amino acids 563-987; Swiss-Prot Acc; No. P54760
# protocol notes: In vitro EphB4 enzyme assay (Alphascreen)
Hey, these are logged values: log10 of IC50, nM being the unit before logging.

Query block: Sample CCN(C)C(=O)c1cc(Nc2nccc(N(C)c3cc(CO)ccc3C)n2)cc(N2CCOCC2)c1 [Example 18.4] — what was its log10 IC50?
Result block: 1.88

Query block: Which value of log10 IC50 has been reported for CSc1cccc(N(C)c2ccnc(Nc3cc(N4CCOCC4)cc(N4CCOCC4)c3)n2)c1 [Example 10.7] in the records?
Result block: 2.80

Query block: Item CN(c1ccnc(Nc2cc(N3CCOCC3)cc(N3CCOCC3)c2)n1)c1cc(F)ccc1F [Example 15.8] has what recorded log10 IC50?
Result block: 2.53

Query block: Would you mind telling me what log10 IC50 value was observed for CN(c1ccnc(Nc2cc(N3CCN(CCO)CC3)cc(S(C)(=O)=O)c2)n1)c1ccc(F)c(Cl)c1F [Example 2.13] ?
Result block: 1.84

Query block: Given the entry Cc1cccc(CO)c1N(C)c1ccnc(Nc2cc(N3CCOCC3)cc(N3CCOCC3)c2)n1 [Example 25.1] , report its measured log10 IC50.
Result block: 1.72

Query block: I'd like to know its log10 IC50. The compound in question is CN(c1ccnc(Nc2cc(N3CCOCC3)cc(N3CCOCC3)c2)n1)c1ccc(Cl)cc1F [Example 15.17]
Result block: 3.06

Query block: Bench note: what log10 IC50 did COc1cccc(N(c2ccnc(Nc3cc(N4CCOCC4)cc(N4CCOCC4)c3)n2)C(C)C)c1 [Example 20] show?
Result block: 2.96

Query block: Look at this compound and give its reported log10 IC50. Cc1ccc(CO)cc1N(C)c1ccnc(Nc2cc(N3CCOCC3)cc(N3CCOCC3=O)c2)n1 [Example 7.16]
Result block: 1.35
